TEST DESCRIPTION: Cytotoxicity against human NFF assessed as growth inhibition at 100 uM after 3 days by sulforhodamine B assay
Assay type: cell-based
MEASUREMENT CONDITIONS: NFF cells, read-out: GI
# inhibition at 72 h, 100 µM per record follows

- CHEMICAL STRUCTURE: "COc1ccc2c(c1)C[C@@H]1[C@H](/C=C/c3ccccc3)c3cc(OC)ccc3O[C@]1(c1ccccc1)O2"
  inhibition at 72 h, 100 µM: "51.4%"
- CHEMICAL STRUCTURE: "COc1ccc2c(c1)C[C@@H]1[C@H](/C=C/c3ccc(Br)cc3)c3cc(OC)ccc3O[C@]1(c1ccc(Br)cc1)O2"
  inhibition at 72 h, 100 µM: "51%"
- CHEMICAL STRUCTURE: "COc1cccc2c1C[C@@H]1[C@H](/C=C/c3ccccc3)c3c(OC)cccc3O[C@]1(c1ccccc1)O2"
  inhibition at 72 h, 100 µM: "48.6%"
